- target-of-assay: Mu-type opioid receptor (Bos taurus, UniProt P79350)
- Sequence (P79350 whole entry): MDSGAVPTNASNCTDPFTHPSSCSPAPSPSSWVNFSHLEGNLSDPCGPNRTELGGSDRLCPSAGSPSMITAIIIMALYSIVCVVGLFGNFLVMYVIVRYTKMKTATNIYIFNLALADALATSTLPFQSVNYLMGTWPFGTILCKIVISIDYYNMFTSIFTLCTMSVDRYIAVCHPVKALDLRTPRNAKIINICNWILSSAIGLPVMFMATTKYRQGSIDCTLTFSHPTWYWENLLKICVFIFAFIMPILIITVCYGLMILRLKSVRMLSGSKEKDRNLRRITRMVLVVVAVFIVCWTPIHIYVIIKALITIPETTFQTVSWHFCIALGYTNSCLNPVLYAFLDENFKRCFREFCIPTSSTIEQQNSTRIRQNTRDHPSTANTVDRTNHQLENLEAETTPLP
- experimental-details: Compound was tested for Inhibition of [3H]DAMGO (0.25 nM) binding to mu receptor from bovine striatal membranes

compound: C=C(Cl)C(=O)N[C@@]12CCC(=O)[C@@H]3Oc4c(O)ccc5c4C31CCN(C)C2C5 (some centres undefined)
IC50, nM: 5.8

compound: C=C(Cl)C(=O)N[C@@]12CCC(=O)[C@@H]3Oc4c(O)ccc5c4C31CCN(CC1CC1)C2C5 (some centres undefined)
IC50, nM: 23.5

compound: C=C(Cl)C(=O)N[C@@H]1CCC2C3Cc4ccc(O)c5c4C2(CCN3C)[C@H]1O5 (some centres undefined)
IC50, nM: 0.56

compound: C=C(Cl)C(=O)N[C@@H]1CCC2C3Cc4ccc(O)c5c4C2(CCN3CC2CC2)[C@H]1O5 (some centres undefined)
IC50, nM: 0.21

Values from ChEMBL document CHEMBL1153675
